Test system: Perilipin-1 (Homo sapiens) (UniProt O60240)
Sequence (O60240 whole entry, looked up, the tested form may be a part): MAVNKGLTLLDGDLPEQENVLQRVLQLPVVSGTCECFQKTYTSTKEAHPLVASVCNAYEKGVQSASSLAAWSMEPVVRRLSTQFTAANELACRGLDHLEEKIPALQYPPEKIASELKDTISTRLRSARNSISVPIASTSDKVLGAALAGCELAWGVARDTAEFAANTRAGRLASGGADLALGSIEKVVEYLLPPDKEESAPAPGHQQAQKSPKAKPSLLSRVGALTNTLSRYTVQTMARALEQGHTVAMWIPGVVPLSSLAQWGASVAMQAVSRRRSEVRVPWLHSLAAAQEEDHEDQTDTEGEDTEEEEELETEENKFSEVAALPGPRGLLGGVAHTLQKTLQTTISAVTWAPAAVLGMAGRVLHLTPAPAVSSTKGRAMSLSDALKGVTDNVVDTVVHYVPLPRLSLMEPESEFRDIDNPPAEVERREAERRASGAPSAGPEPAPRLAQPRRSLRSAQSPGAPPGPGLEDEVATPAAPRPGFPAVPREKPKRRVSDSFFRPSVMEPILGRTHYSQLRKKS
Protocol text: inhibitors of ABHD5-PLIN1 binding, dose response, counter-screen for ABHD5-PLIN5 interaction inhibitor project, biochemical, luminescence (AID 651672);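 further: split Gaussia luciferase complementation between ABHD5 and PLIN1 fusion fragments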
Calls of active or inactive are those of the source. How the calls were made is not given here.
The reply should name one outcome from 1 for active, -1 for inactive

Data request: State the result this test recorded for `CN(C)CCCNC(=O)c1ccc(-c2nc(-c3ccc(Cl)cc3)cs2)cc1` .
Data returned: -1

Data request: State the result this test recorded for `CCCc1nnc(NC(=O)c2nc(S(=O)(=O)Cc3cccc(C)c3)ncc2Cl)s1` .
Data returned: 1

Data request: State the result this test recorded for `COC(=O)c1cc(=O)n(Cc2ccco2)c(=Nc2ccc(F)cc2)s1` .
Data returned: 1

###

Test system: Perilipin-1 (Homo sapiens) (UniProt O60240)
Protocol text: inhibitors of ABHD5-PLIN1 binding, dose response, counter-screen for ABHD5-PLIN5 interaction inhibitor project, biochemical, luminescence (AID 651672);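 further: split Gaussia luciferase complementation between ABHD5 and PLIN1 fusion fragments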
Property: IC50

Solved entries (count: 3):
smiles_representation=CC(=O)Oc1c(Br)cc(N(C(C)=O)S(=O)(=O)c2ccccc2)c2ccccc12 test_system="Perilipin-1 (Homo sapiens) (UniProt O60240)" result="8.8 µM"
smiles_representation=O=C1NC(=O)N(Cc2ccccc2)C(=O)/C1=C\C=C\c1ccco1 test_system="Perilipin-1 (Homo sapiens) (UniProt O60240)" result="1.82 µM"
smiles_representation=C#CCN(C[C@@H]1[C@@H](OC(=O)NCc2ccc(OC)c(OC)c2)[C@@H](OC(=O)NCc2ccc(OC)c(OC)c2)Cn2c(=O)ccc(=O)n21)S(=O)(=O)c1ccc(C)cc1 test_system="Perilipin-1 (Homo sapiens) (UniProt O60240)" result="4.59 µM"

Record summary for `CC1=CC(C)(C)Nc2ccc(OC(=O)CN3C(=O)c4cccc5cccc(c45)C3=O)cc21` : reported IC50 = 6.42 µM

###

Exercise: for every item that follows, state its recorded pIC50.
Test system: Perilipin-1 (Homo sapiens)
Protocol text: inhibitors of ABHD5-PLIN1 binding, dose response, counter-screen for ABHD5-PLIN5 interaction inhibitor project, biochemical, luminescence (AID 651672);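 further: split Gaussia luciferase complementation between ABHD5 and PLIN1 fusion fragments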
Answers are plain numbers, as −log10 of the molar value.

compound=CC1CCN(S(=O)(=O)c2ccc(NC(=O)Cc3cccs3)cc2)CC1 result=5.15
compound="Cc1cccc(C)c1NC(=O)C(c1ccccc1)n1c(=O)c(-c2ccco2)nc2ccccc21 (stereo not drawn)" result=5.47

Record summary for CC1(C)C2CCC(CN=C(N)CSS(=O)(=O)O)C1C2 (stereo not drawn) : reported pIC50 = 5.37

###

Test system: Perilipin-1 (Homo sapiens) (UniProt O60240)
Protocol text: inhibitors of ABHD5-PLIN1 binding, dose response, counter-screen for ABHD5-PLIN5 interaction inhibitor project, biochemical, luminescence (AID 651672);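 further: split Gaussia luciferase complementation between ABHD5 and PLIN1 fusion fragments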
Property: IC50

compound="COc1ccc(NC(=O)C(c2ccnc3ccccc23)n2c(=O)c(-c3ccco3)nc3ccccc32)cc1 (centres undefined)" result="4.76 µM"
compound=CCN(CC)CCOc1ccc(/C(=C(\Cl)c2ccccc2)c2ccccc2)cc1 result="2.23 µM"
compound=Cc1ccc(NC(=O)CSc2nnc(-c3ccco3)c(-c3ccco3)n2)cc1 result="2.66 µM"

Attention now turns to another entry.
Record summary for `O=C1C(=O)c2c(C(=O)c3ccccc3)coc2-c2ccccc21` : reported IC50 = 4.97 µM

Source listed as PubChem BioAssay AID651672.
